For each entry below, report its viability, T/C value.
Tested on: KRAS PDC multicell spheroid viability;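 also: spheroids exposed to compounds for 7 days; 100% = DMSO vehicle control viability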
method summary: Anticancer human tumor 825966-067-R-J1-PDC patient-derived colon carcinoma cell line growth inhibition [KRAS2]
protocol conditions: second compound 10 µM; first compound 10 µM; active compounds read low

Check out these entries, answers already filled in.
>  <compound>
COC(=O)c1ccc2c(C(=Nc3ccc(N(C)C(=O)CN4CCN(C)CC4)cc3)c3ccccc3)c(O)[nH]c2c1 + C=CC(=O)N1CCN(c2nc(=O)n(-c3c(C)ccnc3C(C)C)c3nc(-c4c(O)cccc4F)c(F)cc23)C(C)C1

>  <viability, T/C>
0.17%

$$$$
>  <compound>
COc1cc(Nc2ncc3c(n2)-c2ccc(Cl)cc2C(c2c(F)cccc2OC)=NC3)ccc1C(=O)O + CNCc1ccccc1-c1csc(C(C)Nc2nc(C)nc3cc(OC)c(OC)cc23)c1

>  <viability, T/C>
0.22%

$$$$

Would you mind giving viability, T/C for every compound in the list below?
1. CCNC(=O)CC1N=C(c2ccc(Cl)cc2)c2cc(OC)ccc2-n2c(C)nnc21 (stereo not given) + CC1OCC2(CCN(c3cnc(Sc4ccnc(N)c4Cl)c(N)n3)CC2)C1N
2. COc1cc2nccc(Oc3ccc(NC(=O)C4(C(=O)Nc5ccc(F)cc5)CC4)cc3)c2cc1OC + CNCc1ccccc1-c1csc(C(C)Nc2nc(C)nc3cc(OC)c(OC)cc23)c1
3. CC1(C)CCC(CN2CCN(c3ccc(C(=O)NS(=O)(=O)c4ccc(NCC5CCOCC5)c([N+](=O)[O-])c4)c(Oc4cnc5[nH]ccc5c4)c3)CC2)=C(c2ccc(Cl)cc2)C1 + C=CC(=O)N1CCN(c2nc(=O)n(-c3c(C)ccnc3C(C)C)c3nc(-c4c(O)cccc4F)c(F)cc23)C(C)C1

*A*
71.8%
0.29%
1.37%
